# credit: the nanobody polyreactivity screen of Harvey et al. (2022)

# Assay remarks: yeast display, Sf9 membrane polyspecificity reagent, FACS + sequencing; frameworks hold sequencing errors
Measure: polyreactivity (PSR sort gate)

Examples with their reported polyreactivity (PSR sort gate) follow.
Residue sequence	polyreactivity (PSR sort gate)
QVQLVESGGGLVQAGGSLRLSCAASGITFGDYAMGWYRQAPGKERELVAAISKRGGSTYYADSVKGRFTISRDNAKNTVYLQMNSLKPEDTAVYYCAADYYINAYYYWGQGTQVTVSS	high polyreactivity
QVQLVESGGGLVQAGGILRLSCAAYGRTFSRYGMGWYRHAPGKERQLVADITWRGDSTYYADSVKGRFTISRDNAKNTVYLQMNSLKPEDTAVYYCAVYWRSLYYGYTYDYWGQGTQVTLSS	high polyreactivity
QVQLVESGGGLVQAGGSLRLSCAASGITFEVYAKGWYRQAPGKERELVAVITSVGSTNYADSVKGRFTISRDNAKNTVYLQMNSLKPEDTAVYYCAAEKWTVRRFNPYTYYRYDYWGQGTQVTVSS	low polyreactivity
QVQLVESGGGLVQAGGSLRLSCAASGSTFSPYAMGWYRQAPGKERELVADISWPGGTTYYADSVKGRFTISRDNAKNTVYLQMNSLKPEVTAVYYCAVTYWDYTFQITYEYWGQGTQVTVSS	low polyreactivity

Then this sequence:
The sequence listed as QVQLVESGGGLVQAGGSLRLSCAASGSIFFVYAMGWYRQAPGKERELVAAIDWDGGSTYYADSVKGRFTISRDNAKNTVYLQMNSLKPEDTAVYYCAADAWDLYSDGQEYNYWGQGTQVTVSS shows polyreactivity (PSR sort gate) equal to high polyreactivity

====

# Assay remarks: yeast display, Sf9 membrane polyspecificity reagent, FACS + sequencing; frameworks hold sequencing errors
Measure: polyreactivity (PSR sort gate)

Residue sequence	Measure	Experimental result
QVQLVESGGGLVQAGGSLRLSCAASGRTFRKYAMGWYRQAPGKERELVAALSWYGGSTYYANSVKGRFTISRDNAKNTVYLQMNSLKPEDTAVYYCAAVPVHTGSLYWGFTTCYDYWGQGTQVTVSS	polyreactivity (PSR sort gate)	low polyreactivity
QVQLVESGGGLVHAGGSLRLSCSPSVSIFNTYAMGWYRQAPGKERELVAGITKTGSPTYYADSVKGRFTISRDIAKNTFYLQMNSLKPEDTAVYYCNARIWPRSYRYDYWGQGTQVTVSS	polyreactivity (PSR sort gate)	high polyreactivity
QVQLVESGGGLVQAGGSLRLSCAASGSIFDRYAMGWYRQAPGKESELVAAITCGTSTYYADSVKGRFTISRDNAKNTVYLKMNSLKPEDTAVYYCNKGYSSSMDYWGQGTQVTVSS	polyreactivity (PSR sort gate)	low polyreactivity
QVQLVESGGGLVQAGGSLRLSCAASGRIFPYYAMGWYRQAPGKEREFVAAITRRGTSTYYADSVKGRFTISRDNAKNTVYLQMNSLKPEDTAVYYCNKDIISLSRSYGYWGQGTQVTVSS	polyreactivity (PSR sort gate)	high polyreactivity

Proceed to the following item.
QVQLVESGGGLVQAGGSLRLSCAASGFIFRYNAMGWYRQAPGKESELVAAISSSGTTNYADSVKGRFTISRDNAKNTVYLQMNSLKPEDTAVYYCAARRSYARRFKNSMEYWGEGTQVTVSS yielded polyreactivity (PSR sort gate) of high polyreactivity

====

# Assay remarks: yeast display, Sf9 membrane polyspecificity reagent, FACS + sequencing; frameworks hold sequencing errors
Measure: polyreactivity (PSR sort gate)

Residue sequence	polyreactivity (PSR sort gate)
QVQLVESGGGLVQAGGSLRLSCAASGRTFQGYAMGWYRQAPGKERELVAAISYRGGSTYYADSVKGRFTISRDHAKPTVFLPMNSLKPEDTAVYYCAARWNRGRYDYWGQGTQVTVSS	high polyreactivity
QVQLVESGGGLVQAGGSLRLSCAASGSIFSRYTLGWYRQAPGKVRELVARINSSGTSTYYADSLKGRFTISRDKAKNTVYLQMNSLKPEDTAVYYCARTSRHVRYDYWGQGTQVTVSS	low polyreactivity
QVQLVESGGGIVQAGGSLRLSCAASGSISSAYAMGWYRQAPGKERELVAVITSGGSTNYADSVKGRFTISRDNAKNTVYLQMNSLKQEDTAVYYCATPVASVTGYDYWGLGTQVTVSS	low polyreactivity
QVQLVESGGGLVQAGGSLRLSCAASGFTFKYYVMGWYRQAPGKERELVASISKRGGSRNYADSVKGRFTISRDNAKNTVYLQMNSLKPEDTAVYYCAADYPATSGPRHYYWGQGTQVTVSS	high polyreactivity
QVQLVESGGGLVQAGGSLRLSCAASGSIFGGYAMGWYRQAPGKERELVAAISRSGASTYYADSVKGRFTISRDNAKNTVYLQMNSLKPVDTAVYYCAAYALRGVRYPYRVDFYYWGQGTQVTVSS	high polyreactivity

Briefly, polyreactivity (PSR sort gate) measured for QVQLVESGGGLVQAGRSLRLICAASGLILFYNAMGWYRQPPGKERELVAVITSGGRTYYADSVKGRFTISRDNAKNTVYLQMNSLKPEDTAVYFCAATYGHPTSYGDGWRYGYWGQGTQVTVSS : low polyreactivity

Reported polyreactivity (PSR sort gate) ( QVQLVESGGGLVQAGGSLRLSCAASGFIFDAYAMGWYRPAPGKEREFVAGISIGGRTNYADSVKGRFTISRDNAKNTVYLQMNSLKPEDSAVYYCAARNYRYYYGSYFRGPITNYEYWGQGTQVTVSS ) = low polyreactivity

polyreactivity (PSR sort gate) measured on QVQLVESGGGLVQAGGSLRLSCAASGSIFLGNAMGWYRQAPGKERELVAAISGGDSTNYADSVKGRFTISRDNAKNTVYLQMNSLKPEDTAVYYCAKDRPQEYDYWGQGTQVTVSS = low polyreactivity

sequence QVQLVESGGGLVQAGGSLRLSCAASGRISGWNAMGWYRQAPGKERELVAASTWSDGSTYYADSVKGRFTISRDNAKNTVYLQMNSLKPEDTAVYYCAAEYGWYAGDPYYGYDYYWGQGTQVTVSS , polyreactivity (PSR sort gate) observed: high polyreactivity

Briefly, polyreactivity (PSR sort gate) measured for QVQLVESGGGLVQAGGSLRLSCAASGITFADNARGWYRQAPGKERELVASISNSSGSTYYADSVKGRFTISRDNAKNTVYLQMNSLKPEDTAVYYCATDPYVRRSPSWYDYWGQGTQVTVSS : low polyreactivity

Field polyreactivity (PSR sort gate) (entry QVQLVESGGGLVQAGGSLRLSCAASGFIFKGNAMGWSRQAPGKERELVAAISSRGGSTYYADSVKGRFTISRDNAKNTVYLQMNSLKPEDTAVYYCATRVYWRNDYWGQGTQVTVSS ) reads high polyreactivity
